Tested on: Canis familiaris
Test: The diuretic activity of compound was measured after oral administration in conscious water loaded dogs at 5 mg/kg after 2 hr; Micro equiv of Na+/kg
Assay type: functional, Canis lupus familiaris, Urine
measureName: Oral diuretic activity

| compound | observedValue |
| --- | --- |
| O=C(O)COc1ccc2c(-c3c(F)cccc3F)noc2c1Cl | 98.9 u equiv of [Na+] kg-1 |
| O=C(O)COc1ccc2c(-c3ccccc3F)noc2c1Cl | 499.4 u equiv of [Na+] kg-1 |
| NS(=O)(=O)c1cc(C(=O)O)c(NCc2ccco2)cc1Cl [FUROSEMIDE] | 1311.5 u equiv of [Na+] kg-1 |
| O=C(O)COc1ccc2c(-c3ccccc3F)noc2c1Br [BROCRINAT] | 1083 u equiv of [Na+] kg-1 |

###

Recorded Oral diuretic activity values for a group of compounds are listed next.
Tested on: Canis familiaris
Experiment: The diuretic activity of compound was measured after oral administration in conscious water loaded dogs at 5 mg/kg after 5h; Micro equiv of Na+/kg
Assay type: functional, Canis lupus familiaris, Urine

| compound | Oral diuretic activity |
| --- | --- |
| O=C(O)COc1ccc2c(-c3c(F)cccc3F)noc2c1Cl | 397 u equiv of [Na+] kg-1 |
| NS(=O)(=O)c1cc(C(=O)O)c(NCc2ccco2)cc1Cl [FUROSEMIDE] | 144.1 u equiv of [Na+] kg-1 |
| O=C(O)COc1ccc2c(-c3ccccc3F)noc2c1Cl | 458.2 u equiv of [Na+] kg-1 |
| O=C(O)COc1ccc2c(-c3ccccc3F)noc2c1Br [BROCRINAT] | 503.3 u equiv of [Na+] kg-1 |
| O=C(O)COc1ccc(C(=O)c2cccs2)c(Cl)c1Cl [TICRYNAFEN] | 36.5 u equiv of [Na+] kg-1 |

###

Test system: Canis familiaris
Test: Diuretic activity was measured after oral administration in conscious water loaded dogs at 20 mg/kg after 1 hr
Assay type: functional, Canis lupus familiaris, Urine

| molecule | measurementTarget | Oral diuretic activity |
| --- | --- | --- |
| O=C(O)COc1cc2onc(-c3ccccc3F)c2cc1Cl | Canis familiaris | 49.8 u equiv of [Na+] kg-1 hr-1 |
| O=C(O)COc1ccc(C(=O)c2cccs2)c(Cl)c1Cl | Canis familiaris | 302.3 u equiv of [Na+] kg-1 hr-1 |
| Cc1ccc(-c2noc3c(Cl)c(OCC(=O)O)ccc23)cc1 | Canis familiaris | 29.3 u equiv of [Na+] kg-1 hr-1 |
| Cc1ccsc1-c1noc2c(Cl)c(OCC(=O)O)ccc12 | Canis familiaris | 97.7 u equiv of [Na+] kg-1 hr-1 |
| O=C(O)COc1ccc2c(-c3cccc(F)c3)noc2c1Cl | Canis familiaris | 50.6 u equiv of [Na+] kg-1 hr-1 |
| O=C(O)COc1ccc2c(-c3ccc(F)cc3)noc2c1Cl | Canis familiaris | 178.7 u equiv of [Na+] kg-1 hr-1 |
| O=C(O)COc1ccc2c(-c3c(F)cccc3F)noc2c1Cl | Canis familiaris | 1081.4 u equiv of [Na+] kg-1 hr-1 |
| O=C(O)COc1ccc2c(-c3ccccc3F)noc2c1Br | Canis familiaris | 1970.7 u equiv of [Na+] kg-1 hr-1 |
| O=C(O)COc1ccc2c(-c3ccc(Cl)cc3F)noc2c1Cl | Canis familiaris | 156.2 u equiv of [Na+] kg-1 hr-1 |
| O=C(O)COc1ccc2c(-c3ccccc3F)noc2c1Cl | Canis familiaris | 1267.5 u equiv of [Na+] kg-1 hr-1 |
| O=C(O)COc1ccc2c(-c3cccc[n+]3[O-])noc2c1Cl | Canis familiaris | 116.6 u equiv of [Na+] kg-1 hr-1 |
| O=C(O)COc1ccc2c(-c3ccccn3)noc2c1Cl | Canis familiaris | 61.2 u equiv of [Na+] kg-1 hr-1 |
| CCOC(=O)COc1ccc2c(-c3ccccc3F)noc2c1Cl | Canis familiaris | 39.1 u equiv of [Na+] kg-1 hr-1 |
| O=C(O)COc1ccc2c(-c3ccccc3F)noc2c1 | Canis familiaris | 33.6 u equiv of [Na+] kg-1 hr-1 |
| O=C(O)COc1ccc2c(-c3ccc(Cl)c(Cl)c3)noc2c1Cl | Canis familiaris | 101.6 u equiv of [Na+] kg-1 hr-1 |
| O=C(O)COc1ccc(-c2noc3ccccc23)c(Cl)c1Cl | Canis familiaris | 81.6 u equiv of [Na+] kg-1 hr-1 |
| Cc1ccc(-c2noc3c(Cl)c(OCC(=O)O)ccc23)o1 | Canis familiaris | 37.4 u equiv of [Na+] kg-1 hr-1 |
| O=C(O)COc1ccc2c(-c3ccccc3F)noc2c1I | Canis familiaris | 617.3 u equiv of [Na+] kg-1 hr-1 |
| O=C(O)COc1ccc2c(-c3ccco3)noc2c1Cl | Canis familiaris | 199 u equiv of [Na+] kg-1 hr-1 |
| O=C(O)COc1ccc2c(-c3ccccc3)noc2c1Cl | Canis familiaris | 47.5 u equiv of [Na+] kg-1 hr-1 |
| Cc1ccccc1-c1noc2c(Cl)c(OCC(=O)O)ccc12 | Canis familiaris | 66.9 u equiv of [Na+] kg-1 hr-1 |
| O=C(O)COc1ccc2c(-c3ccc(Cl)cc3)noc2c1Cl | Canis familiaris | 41.2 u equiv of [Na+] kg-1 hr-1 |
| O=C(O)CSc1ccc2c(-c3ccccc3F)noc2c1Cl | Canis familiaris | 328.4 u equiv of [Na+] kg-1 hr-1 |
| O=C(O)COc1ccc2c(-c3cccc(F)c3F)noc2c1Cl | Canis familiaris | 80 u equiv of [Na+] kg-1 hr-1 |
| C=C(CC)C(=O)c1ccc(OCC(=O)O)c(Cl)c1Cl | Canis familiaris | 703 µequiv [Na+] kg-1 hr-1 |
| O=C(O)COc1ccc2c(-c3cccs3)noc2c1Cl | Canis familiaris | 77.5 u equiv of [Na+] kg-1 hr-1 |
